Measured PBM E-score of individual entries
- Assay Target: Msn1 (UniProt P22148)
- Sequence: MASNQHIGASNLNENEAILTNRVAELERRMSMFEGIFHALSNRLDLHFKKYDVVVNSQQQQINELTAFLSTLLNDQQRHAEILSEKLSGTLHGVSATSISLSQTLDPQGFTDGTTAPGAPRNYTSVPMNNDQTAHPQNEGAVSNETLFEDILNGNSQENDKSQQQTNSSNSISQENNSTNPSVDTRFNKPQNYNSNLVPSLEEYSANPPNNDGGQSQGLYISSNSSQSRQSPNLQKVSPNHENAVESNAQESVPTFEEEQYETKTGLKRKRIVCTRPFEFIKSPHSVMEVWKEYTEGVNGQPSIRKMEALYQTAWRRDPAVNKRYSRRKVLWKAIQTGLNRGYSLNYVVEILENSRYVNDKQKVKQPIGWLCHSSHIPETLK
- Experimental Details: PBM E-score (8-mer binding enrichment) (E-score (-0.5 to 0.5)); higher = stronger / more preferred TF binding
- Test Context: protein concentration: 200 nM; construct: GST-full length
Over roughly 33,000 sequences, “E-score (-0.5 to 0.5)” has its median near -0.013; the highest 2% begin near 0.3. This is one part of a sample in which the highest values are shown more often than they occur.
Form field (numeric): enter value without unit.

Residue Codes	PBM E-score
AAAAATGT	0.335
AAGTGTCG	0.126
ATAGGTAC	0.199
GCACAGGA	0.0138
AAAGGACA	0.445

For this sequence ( TCCTTCGA ), measured PBM E-score is 0.11

# PBM E-score of CAAGGACA = 0.484
